experiment: Quantitative High-Throughput drug screen in 47 multiple myeloma cell lines against the NCATS MIPE library collection: JIM1_ECACC cell viability assay (AID 1918964); details: JIM1 myeloma viability, CellTiter-Glo ATP luminescence, 48 h; series mostly up to 45.8 µM
Results filed as inconclusive are left out. Calls of active or inactive are those of the source. Calls come from the whole dose curve; as a rule, active = well fitted cell-killing curve with a large enough effect; inconclusive = small, poorly fitted or top-dose-only effect, or effect the other way; inactive = no such curve, though single readings can be large or run the other way.
Can you answer with just one of these options? Y = active, N = inactive

Query string: Record request — test call for CC[C@@]1([C@@H]2O[C@@H]([C@H]3O[C@@](O)(CO)[C@H](C)C[C@H]3C)C[C@H]2C)CC[C@H]([C@]2(C)CC[C@]3(C[C@H](O)[C@@H](C)[C@@H]([C@@H](C)[C@@H](OC)[C@H](C)C(=O)O)O3)O2)O1
Result string: Y

Query string: Outcome? C=CC1=C(C(=O)O)N2C(=O)[C@@H](NC(=O)C(=NO)c3csc(N)n3)[C@H]2SC1
Result string: N

Query string: For COc1cc(C(=O)NC2CCN(C)CC2)ccc1Nc1ncc2c(n1)N(C1CCCC1)CCC(=O)N2C(C)C , which call appears in the assay record?
Result string: Y

###

assay: Primary redox qHTS assay for identification of artifact compounds. (AID 1845223); conditions: Amplex Red/HRP redox cycling with DTT, fluorescence; series mostly up to 53.8 µM
Records with an inconclusive call do not appear. Activity calls are given as the source filed them. Calls come from the whole dose curve; as a rule, active = well fitted activation curve with a large enough effect; inconclusive = small, poorly fitted or top-dose-only effect; inactive = flat fitted curve, though single readings scatter.
Returns: one label drawn from active, inactive

Query string: GET /call?item= Oc1cc(-c2nc(-c3ccccc3)[nH]c2-c2ccncc2)ccc1Cl returns the recorded outcome of this test.
Result string: inactive

Query string: Hi, sorry to bother you, what did the test record for Cc1ccccc1C(=O)Nc1ccc(C(=O)N2CCCC(O)c3cc(Cl)ccc32)c(C)c1 (stereo not drawn) ?
Result string: inactive

Query string: Which outcome did this test record for the compound O=C(Nc1ccc(Oc2ccnc3[nH]ccc23)c(F)c1)c1cccn(-c2ccc(F)cc2)c1=O ?
Result string: inactive

Query string: What is the recorded call for this compound in the test? CC(C)(N)c1ccc(-c2nc3ccccc3nc2-c2ccccc2)cc1
Result string: inactive

Query string: Tell me the recorded outcome of this test for CCC[C@H]1C[C@H](C(=O)N[C@@H]([C@@H]2O[C@@H](SC)[C@@H](O)[C@@H](O)[C@@H]2O)[C@H](C)Cl)N(C)C1 .
Result string: inactive

Query string: What was the test verdict on Cn1cc(-c2ccc3ncc(Cc4ccc5ncccc5c4)n3n2)cn1 ?
Result string: inactive

Query string: What is the recorded call for this compound in the test? C[C@H]1[C@@H](OC(=O)CCC(=O)O)O[C@@H]2O[C@@]3(C)CC[C@@H]4[C@H](C)CC[C@@H]1[C@@]24OO3
Result string: inactive

Query string: Called result for COc1cc(CCc2cc(NC(=O)c3ccc(N4C[C@@H](C)N[C@@H](C)C4)cc3)n[nH]2)cc(OC)c1
Result string: inactive

Query string: In this assay, the call recorded for Cc1coc2c1C(=O)C(=O)c1c-2ccc2c(C)cccc12 was what?
Result string: active

Query string: What did the test return for C=CC(=O)Nc1ccc2ncnc(Nc3ccc(OCc4cccc(F)c4)c(Cl)c3)c2c1 ?
Result string: inactive

Query string: Each compound tested received a call. Report the one for c1ccc2c(Oc3nc(Nc4ccc(N5CCOCC5)cc4)c4ncn(C5CCCCC5)c4n3)cccc2c1 .
Result string: inactive

Query string: Recorded test call requested for C[N+]1(C)[C@@H]2C[C@@H](OC(=O)C(O)(c3cccs3)c3cccs3)C[C@H]1[C@@H]1O[C@@H]12
Result string: inactive

Query string: What classification did CC1=C(C(=O)Nc2cc3cn[nH]c3cc2F)C(c2ccc(Cl)cc2F)N=C(c2ccnc(Cl)c2)N1 (stereo not drawn) end up with in this test?
Result string: inactive

Query string: Please share the test call associated with COc1ccc(S(=O)(=O)Nc2cccnc2Nc2ccc(O)cc2)cc1 .
Result string: inactive

Query string: Kindly provide the recorded test outcome for the following compound: Oc1ccc([C@@H]2Oc3ccc(O)cc3[C@@H]3CCC[C@@H]32)cc1
Result string: inactive

Query string: Recorded test outcome, item N#Cc1c(C2CCNCC2)cc(-c2c(O)cccc2OCC2CC2)nc1N
Result string: inactive

Query string: Look up the recorded call for FC(F)c1nc2ccccc2n1-c1nc(N2CCOCC2)nc(N2CCOCC2)n1 in this test.
Result string: inactive

Query string: Given CC(C)n1cnc2c(NCCc3ccc(O)cc3)nc(-c3csc4ccccc34)nc21 , state the outcome it received in this test.
Result string: inactive

Query string: // param item: O=C(Nc1cc2cc[nH]c2cn1)c1ccccc1 ; yields the recorded call
Result string: inactive

Query string: How was Cc1cnc(Nc2ccc(CN3CCOCC3)cc2)nc1Nc1cccc(S(=O)(=O)NC(C)(C)C)c1 classified in this test?
Result string: inactive

Query string: Each compound tested received a call. Report the one for CN(C)CC(=O)N1CCC(c2ccc(NC(=O)c3ncc(C#N)[nH]3)c(C3=CCCCC3)c2)CC1 .
Result string: inactive

Query string: How did this test come out for CCOC(=O)[C@@H](N)Cc1ccc(-c2cc(O[C@H](c3ccc(Cl)cc3-n3ccc(C)n3)C(F)(F)F)nc(N)n2)cc1 ?
Result string: inactive

Query string: What did the test return for CCCCOc1ccc(C(=O)Nc2ccc(F)cc2F)cc1 ?
Result string: inactive

Query string: What did this assay record as the result for CCN(CC)Cc1ccc2cc(COC(=O)Nc3ccc(C(=O)NO)cc3)ccc2c1 ?
Result string: inactive

Query string: Lab log entry: CCc1nc(-c2cccc(C)c2)c(-c2ccnc(NC(=O)c3ccccc3)c2)s1 — outcome as called in the assay?
Result string: inactive

Query string: Kindly provide the recorded test outcome for the following compound: Cc1cncc2cccc(S(=O)(=O)N3CCCN(C(=O)CN)C[C@@H]3C)c12
Result string: inactive

Query string: // outcome(item) with item = FC(F)(F)c1ccc(Nc2nc3ccc(Oc4ccnc(-c5ncc(C(F)(F)F)[nH]5)c4)cc3[nH]2)cc1
Result string: inactive

Query string: // param item: CS(=O)(=O)N1CCc2c(-c3cnc(N)nc3)nc(N3CCOCC3)nc21 ; yields the recorded call
Result string: inactive

###

tested on: HaCat; experiment: Cytotoxic Profiling of Annotated Libraries Using Quantitative High-Throughput Screening (AID 1296008); conditions: Five cell lines viability, CellTiter-Glo ATP luminescence, 48-72 h; stronger effect = lower value; note: % is set by controls: 0 for no effect and ±100 for the full control effect; nearly all actives have a fitted effect of over 60% in size
Results filed as inconclusive are left out. Positions of bridges follow the written chain, without caps; N, C: chain ends. Non-standard residues stand in square brackets, D forms with d. Residues, ends and D or L forms follow the SMILES beside them. ξ: configuration not given here. *: point of attachment. Octanoyl(6-Me) = CCC(C)CCCCC(=O)*; ξThr(3R) = C[C@@H](O)C(N)C(=O)O; dDab = NCC[C@@H](N)C(=O)O; Dab = NCC[C@H](N)C(=O)O
Consider the following compounds; for each one, report its max response.
API: value field is a number in %; no unit string.

Query string: Entry under review: CC[C@H](CC[C@@H](C)[C@H]1CC[C@H]2[C@@H]3CC=C4C[C@@H](O)CC[C@]4(C)[C@@H]3CC[C@]12C)C(C)C . Reported max response?
Result string: 4.34

Query string: Quick one: max response for C=C(C)[C@@H]1CC[C@]2(C(=O)O)CC[C@]3(C)[C@H](CC[C@@H]4[C@@]5(C)CC[C@H](O)C(C)(C)[C@@H]5CC[C@]43C)[C@@H]12 ?
Result string: 1.59

Query string: Record request: max response value, item N#CC(=C(O)c1ccc(Cl)cc1Cl)c1nc2cc(Cl)ccc2c(=O)[nH]1
Result string: 4.62

Query string: Please give the measured max response for this compound: C=C1CCC2[C@](C)(CO)C(O)CC[C@]2(C)C1CC=C1C(=O)OCC1O (stereo partly specified)
Result string: -3.92

Query string: I have this compound here, COc1ccnc2[nH]cc(C(=O)C(=O)N3CCN(C(=O)c4ccccc4)C[C@@H]3C)c12 , and I need its recorded max response.
Result string: -2.32

Query string: I'd like to know its max response. The compound in question is CCC(C)CCCCC(=O)N[C@@H](CCN)C(=O)NC(C(=O)N[C@H](CCN)C(=O)N[C@@H]1CCNC(=O)C([C@@H](C)O)NC(=O)[C@@H](CCN)NC(=O)[C@@H](CCN)NC(=O)[C@@H](CC(C)C)NC(=O)[C@H](Cc2ccccc2)NC(=O)[C@H](CCN)NC1=O)[C@@H](C)O (stereo partly drawn) ({Octanoyl(6-Me)}-[Dab][ξThr(3R)][dDab][dDab][Dab]F[dL][dDab][dDab][ξThr(3R)]; lactam 4-C)
Result string: 0.455
